Procedure summary: Pharmacokinetics, plasma concentration by bioassay after subcutaneous injection
Type: in vivo
Study conditions: mouse, sc, mice (ddY, male), 20 mg/kg subcutaneous, read-out: Cmax (maximal plasma concentration)
Reported property: Cmax (µg/mL)

| Structure | Quantitative result |
| --- | --- |
| C[C@@H](O)[C@H]1C(=O)N2C(C(=O)[O-])=C(SC3CN(c4nc(C(=O)N5CCOCC5)cs4)C3)[C@H](C)[C@H]12.[Na+] | 56.6 |
| C[C@@H](O)[C@H]1C(=O)N2C(C(=O)O)=C(SC3CN(c4nc(C(=O)N5CCNCC5)cs4)C3)[C@H](C)[C@H]12 | 46.1 |
| C[C@@H](O)[C@H]1C(=O)N2C(C(=O)O)=C(SC3CN(c4nc(C(=O)N[C@@H]5CCNC5)cs4)C3)[C@H](C)[C@H]12 | 63.9 |

====

Tested on: S. pneumoniae 9605 (PRSP)
Procedure summary: In vivo antibacterial activity, intraperitoneal infection of mice
Study conditions: Streptococcus pneumoniae, 168 h; male ddY mice, i.p. S. pneumoniae 9605 (PRSP), single subcutaneous treatment, Probit method from survival rates 7 days after infection
Experimental: Male ddY mice of 4 weeks old (purchased from SLC Japan) were intraperitoneally inoculated with S. pneumoniae 9605 (PRSP) at a volume of 0.2 ml (containing 5% mucin, 1-5×10^3 colony forming unit (cfu)/mouse). Immediately after the mice were infected, they were subcutaneously treated with the test compound singly at a volume of 0.1 ml. Seven mice were used per group. […] ED50 values of the compounds were calculated by the Probit method from survival rates 7 days after infection.
Reported property: ED50 (mg/kg)

| Structure | Units label | Quantitative result |
| --- | --- | --- |
| C[C@@H](O)[C@H]1C(=O)N2C(C(=O)O)=C(SC3CN(c4nc(CN)cs4)C3)[C@H](C)[C@H]12 | mg/kg | 1.6 |
| C[C@@H](O)[C@H]1C(=O)N2C(C(=O)O)=C(SC3CN(c4nc(C(=O)N5CCNCC5)cs4)C3)[C@H](C)[C@H]12 | mg/kg | 1.41 |
| C[C@@H](O)[C@H]1C(=O)N2C(C(=O)O)=C(SC3CN(c4nc(C(=O)NCCN)cs4)C3)[C@H](C)[C@H]12 | mg/kg | 1.79 |
| C[C@@H](O)[C@H]1C(=O)N2C(C(=O)O)=C(SC3CN(c4nc(C(=O)N[C@H]5CCNC5)cs4)C3)[C@H](C)[C@H]12 | mg/kg | 0.855 |

====

ED50 by entry:
Test system: S. pneumoniae 9605 (PRSP)
Procedure summary: In vivo antibacterial activity, intraperitoneal infection of mice
Study conditions: Streptococcus pneumoniae, 168 h; male ddY mice, i.p. S. pneumoniae 9605 (PRSP), single subcutaneous treatment, Probit method from survival rates 7 days after infection
Reported property: ED50 (mg/kg)

| Structure | Assayed system | Units label | Quantitative result |
| --- | --- | --- | --- |
| C[C@@H](O)[C@H]1C(=O)N2C(C(=O)[O-])=C(SC3CN(c4nc(C(=O)N5CCOCC5)co4)C3)[C@H](C)[C@H]12.[Na+] | S. pneumoniae 9605 (PRSP) | mg/kg | 0.534 |
| C[C@@H](O)[C@H]1C(=O)N2C(C(=O)O)=C(SC3CN(c4nc(C(=O)N[C@@H]5CCNC5)cs4)C3)[C@H](C)[C@H]12 | S. pneumoniae 9605 (PRSP) | mg/kg | 0.899 |
| C[C@@H](O)[C@H]1C(=O)N2C(C(=O)O)=C(SC3CN(c4nc(C(=O)NC5CNC5)cs4)C3)[C@H](C)[C@H]12 | S. pneumoniae 9605 (PRSP) | mg/kg | 1.08 |
